protocol.description: qHTS assay for MDR1-selective chemotherapeutics: Primary screen using the parental adenocarcinoma cell KB-3-1; further: nearly all actives have a fitted effect of over 60% in size
measurement.parameters: KB-3-1 viability, CellTiter-Glo ATP luminescence, 72 h; series mostly up to 46.1 µM
The whole screen tested about 400,000 compounds, of which about 5,500 (1.4%) were called active. Not shown: some 9% with an inconclusive outcome. The call rests on the fitted dose curve; in most records, active means well fitted cell-killing curve with a large enough effect; inconclusive means small, poorly fitted or top-dose-only effect, or effect the other way; inactive means flat fitted curve, though single readings scatter. Shown is part of a subset that was picked to be rich in actives.
Outcome field: choose from active, inactive

Hey, what did the test say about CC(OC(=O)CN1C(=O)c2ccccc2C1=O)C(=O)c1ccccc1 (stereo not drawn) ?
inactive

Outcome logged for O=C(NCCC1=CCCCC1)c1ccc2c(c1)N(Cc1ccccc1F)C(=O)c1ccccc1S2(=O)=O in this assay:
inactive

Can you look up the reported call for Cc1ccc(N2CCN(C(=S)Nc3cc(C)ccn3)CC2)cc1 for me?
inactive

Test call for this compound, please: COc1cc(OC)cc(C(=O)N[C@H](C(=O)Nc2nc3ccccc3[nH]2)C(C)C)c1
active

Could you check what this test reported for CC(=O)Nc1ccc2nc(NC(=O)CS(=O)(=O)c3ccc(F)cc3)sc2c1 ?
inactive

Short answer needed: outcome of this test for CCN(CC)CCOc1ccc2c(c1)C(=NNC(=O)c1ccccn1)c1cc(OCCN(CC)CC)ccc1-2 ?
active

Name the outcome recorded for COc1ccc(C2c3c(oc4ccccc4c3=O)C(=O)N2Cc2ccc3c(c2)OCO3)cc1 (stereo not drawn) in the assay.
inactive

Assay result, entry Cc1cc(-c2ccc(S(=O)(=O)N3CCN(c4cccc(C(F)(F)F)c4)CC3)s2)on1 — outcome?
inactive

Record request — test call for COc1cc(NC(=O)CCn2nc(C)cc2C)cc(OC)c1OC
inactive

For CCCCC(=O)NC(c1ccc(OC)c(OC)c1)c1ccc2cccnc2c1O (stereo not drawn) , what call appears in the results of this test?
active

What did this assay record as the result for Cc1cc(C)cc(NC(=O)CCS(=O)(=O)c2cc3c4c(c2)CCN4C(=O)CC3)c1 ?
inactive

Call for entry Brc1nc2ncnc(NCc3ccco3)c2[nH]1 :
inactive

So what was the verdict on Cc1cc(/C=C2/SC(=O)N(CC(=O)OC(C)C)C2=O)c(C)n1C in this test?
inactive

Kindly provide the recorded test outcome for the following compound: CC1CN(C(=O)N2CCC(C(=O)NCc3ccco3)CC2)c2cc(Cl)ccc2O1 (stereo not drawn)
inactive

Lab log entry: C[C@H]1CN(c2ccc(Br)cc2)C(=O)[C@@H]1CC(=O)Nc1ccc(Br)cc1 — outcome as called in the assay?
inactive

Tell me the assay call for O=c1c2cc(Br)ccc2nc(-c2cccc(Cl)c2)n1O please.
active

Recorded test outcome, item CCc1cccc(C)c1NS(=O)(=O)c1ccc(-c2cc(C)no2)s1
active

Please let me know the test result on file for Cc1ccc(C(=O)CSc2nc(-c3ccccc3)nc3c2CCCC3)c(C)c1 .
inactive

Which outcome was entered for the compound CCc1cccc(C)c1NS(=O)(=O)c1cc(Br)cnc1N in this test?
inactive

Just curious, what result did CCOc1ccc(C(CCc2ccccc2)NC(=O)c2ccc(OC)c(OC)c2)cc1OCC (stereo not drawn) get here?
inactive

Could you please tell me the result logged for CN(CCOc1ccc(CC2SC(=O)NC2=O)cc1)c1ccccn1 (stereo not drawn) in this assay?
inactive

Identify the outcome logged in this assay for the compound shown: CCCc1nc2scc(-c3ccc(C)cc3)c2c(=O)n1N
inactive

Fill in: this test's call for CCOC(=O)C(Cc1ccccc1)NC(=O)CCc1c(C)nc2c(c(C)nn2-c2ccc(C)c(C)c2)c1C (stereo not drawn) is ___
inactive

How was CCCn1nc(C(=O)Nc2ccc3nc(C)sc3c2)c2ccccc2c1=O classified in this test?
inactive

Record lookup: outcome of this test for COc1cccc(C(c2c(O)cc(C)n(Cc3ccco3)c2=O)N2CCN(c3ccccc3)CC2)c1 (stereo not drawn) ?
inactive

// outcome(item) with item = Cc1cc(-c2ccc(S(=O)(=O)N3CCc4ccccc4C3)s2)on1
inactive

Give the logged outcome of this assay for the following compound: CCc1nn(-c2cc(Oc3cccc4ccccc34)nc(-c3ccccc3)n2)c(N)c1C#N
active

What did the test return for CCc1ccc2oc(-c3ccc(NC(=O)c4cc5ccccc5o4)cc3)nc2c1 ?
inactive
